# assay info: NCI Yeast Anticancer Drug Screen. Data for the mec2-1 strain (AID 157)
# condition description: S. cerevisiae mec2-1 strain, at 100.0 µM, active compounds read high
Compounds without any hit were thinned out: in the full panel of roughly 79,000, 15% have a hit. The source made the active and inactive calls. Cut-off read from the data, not from the text of the source: active = growth inhibition above about 70%; inactive = the rest.
experimental readout: growth inhibition

# count of solved cases: 3
molecule: O=P(CCCCP(=O)(c1ccccc1)c1ccccc1)(c1ccccc1)c1ccccc1.[Cl][Sn]([Cl])([c]1ccccc1)[c]1ccccc1
growth inhibition: 96% (active)
--
molecule: C[N+](CCCl)(CCCl)Cc1cccc2cccc([N+](=O)[O-])c12
growth inhibition: 77% (active)
--
molecule: Oc1cccnc1[Se]
growth inhibition: 98% (active)

Check the records and state growth inhibition for CNCC(O)c1ccc(O)c(O)c1.[Pt].c1ccc([PH+](c2ccccc2)c2ccccc2)cc1.c1ccc([PH+](c2ccccc2)c2ccccc2)cc1
97% (active)

Check the records and state growth inhibition for COc1ccc(OC)c(/C=C/[N+](=O)[O-])c1
99% (active)

Check the records and state growth inhibition for COC(=O)C1c2cc3c(c(O)c2C(O)CC1(C)O)C(=O)c1c(O)cc2c(c1C3=O)OC1OC2(C)C(O)C(N(C)C)C1O (stereo not drawn)
94% (active)

Check the records and state growth inhibition for CC(C)CC(NC(=O)C(N)C(C)C)C(=O)NC(CCCCN)C(=O)Nc1ccc(N(CCCl)CCCl)cc1 (stereo not drawn)
-16% (inactive)

###

# assay info: NCI Yeast Anticancer Drug Screen. Data for the wt1 strain (AID 149);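 note: 0% = growth of vehicle-treated wt1 cultures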
# condition description: S. cerevisiae wt1 strain (SPY 50644) growth inhibition; at 33.0 µM; active compounds read high
The panel holds about 79,000 compounds, 15% with a hit somewhere; the sample as a whole holds those more often. Calls of active or inactive are those of the source. No stated cut-off is given here; in the data, active means growth inhibition above about 70%; inactive means the rest.
Attribute: growth inhibition

# count of solved cases: 8
molecule: CCOP(=S)(S)OCC.[Pd]
experimental readout: growth inhibition
endpoint value: 89% (active)
//
molecule: Oc1cccnc1[Se]
experimental readout: growth inhibition
endpoint value: 46% (inactive)
//
molecule: BrCC[N+]12CC[N+](CCBr)(CC1)C2
experimental readout: growth inhibition
endpoint value: 82% (active)
//
molecule: Cc1cc[n+](C2=C(Nc3cccc(C(F)(F)F)c3)C(=O)c3ccccc3C2=O)cc1
experimental readout: growth inhibition
endpoint value: 7% (inactive)
//
molecule: Cc1ccc2nc3sc(=O)sc3nc2c1
experimental readout: growth inhibition
endpoint value: 98% (active)
//
molecule: Cn1cc(NC(=O)c2cc(NC(=O)CN=C(N)N)cn2C)cc1C(=O)NCCC(=N)N
experimental readout: growth inhibition
endpoint value: 85% (active)
//
molecule: O=c1c2ccccc2[se]n1-c1cccnc1
experimental readout: growth inhibition
endpoint value: 29% (inactive)
//
molecule: Oc1ccc2nc3ccccc3nc2c1
experimental readout: growth inhibition
endpoint value: 26% (inactive)

Check the records and state growth inhibition for C[C@]12CCC3[C@@H](CC[C@@H]4c5nonc5CC[C@]34C)C1CCC2=O (stereo not given in full)
38% (inactive)

Check the records and state growth inhibition for CCOP(=O)(CC(C)P(=O)(OCC)OCC)OCC.C[CH2][Sn]([Cl])([Cl])[CH2]C (stereo not given)
76% (active)

Check the records and state growth inhibition for CCCCCCCCCCCCCCCCP(=O)(O)OCC(N)C(=O)O (stereo not given)
-31% (inactive)

###

Attribute: growth inhibition
# assay info: NCI Yeast Anticancer Drug Screen. Data for the mlh1 rad18 strain (AID 175)
# condition description: S. cerevisiae mlh1 rad18 strain growth inhibition; at 50.0 µM; active compounds read high
This is part of a sample that, as a whole, favours compounds with a hit. Of some 79,000 tested, about 15% had one in any assay.
Give a bare numeral; the unit % is implied.

compound: CSc1nncc(=O)[nH]1.[Hg]
growth inhibition / %: 99.2
//
compound: Cc1cccc(NC(=O)CBr)c1
growth inhibition / %: 99.3
//
compound: C[C@]12CCC(=O)C=C1CC[C@@H]1C2CC[C@@]2(C)C1CC[C@@H]2OC(=O)C12OC1CCC2=O (stereo partly specified)
growth inhibition / %: 85.4
//
compound: CNCC(O)c1cn(C)c2ccccc12 (stereo unspecified)
growth inhibition / %: 40.9
//
compound: O=c1c2ccccc2[se]n1-c1ccccc1
growth inhibition / %: 86

Shifting focus to the compound that follows.
Check the records and state growth inhibition for O=C(c1ccc(Br)cc1)C1C(c2ccccc2)N1C1CCCCC1 (stereo unspecified)
91

###

# assay info: NCI Yeast Anticancer Drug Screen. Data for the mlh1 rad18 strain (AID 175)
# condition description: S. cerevisiae mlh1 rad18 strain growth inhibition; at 50.0 µM
About 79,000 compounds went through this panel and 15% of them were active in at least one assay; those are over-represented in the sample as a whole. The source made the active and inactive calls. Cut-off read from the data, not from the text of the source: active = growth inhibition above about 70%; inactive = the rest.
# valid calls are 1 (yes) for active, 0 (no) for inactive; nothing else

compound: CCC[CH2][Sn]([Cl])([CH2]Cl)[CH2]CCC
assigned category: 1 (yes)
//
compound: COc1cc(C[C@H]2c3cc(OC)c(OC)c(O)c3CCN2C)c(Oc2cc3c(cc2OC)-c2c(OC)c(OC)c(OC)c4c2C(C3)N(C)CC4)cc1OC (some centres undefined) (tested in a mixture with another compound)
assigned category: 1 (yes)
//
compound: CCCCCCCC1(c2ccc(N)cc2)CCC(=O)NC1=O (centres undefined)
assigned category: 0 (no)
//
compound: CN(C)C(=S)[S][Sb]([c]1ccccc1)[c]1ccccc1
assigned category: 1 (yes)
//
compound: C[C@]12CC[C@H]3[C@@H](CCC4=CC(=O)CC[C@@H]43)[C@@H]1CC[C@@H]2OC1(O)C(=O)c2ccccc2C1=O
assigned category: 0 (no)
//
compound: Nc1ccc2cc(Br)ccc2c1
assigned category: 0 (no)
//
compound: ClCCN(CCCl)CCN1c2ccccc2Sc2ccc(Cl)cc21
assigned category: 1 (yes)
//
compound: C[C@H]1C/C=C/[C@H]2[C@@H]3O[C@]3(C)[C@@H](C)[C@H]3[C@H](Cc4ccccc4)NC(=O)[C@]32OC(=O)O/C=C/[C@@](C)(O)C1=O
assigned category: 1 (yes)

Consider now this further compound.
Write down the call the test reported for this compound. Item: O=C1c2ccccc2[Se](=O)N1c1ccccc1 (centres undefined)
1 (yes)

###

# assay info: NCI Yeast Anticancer Drug Screen. Data for the mgt1 strain (AID 153)
# condition description: S. cerevisiae mgt1 mutant growth inhibition; at 3.7 µM
The panel holds about 79,000 compounds, 15% with a hit somewhere; the sample as a whole holds those more often. The source made the active and inactive calls. Cut-off read from the data, not from the text of the source: active = growth inhibition above about 70%; inactive = the rest.
# valid calls are active, inactive; nothing else

compound: C[C@]12CCC3[C@@H](CC[C@@H]4c5nonc5CC[C@]34C)C1CCC2=O (some centres undefined)
assigned category: inactive

Write down the call the test reported for this compound. Item: c1c(N2CCOCC2)ssc1=[N+]1CCOCC1
inactive

Write down the call the test reported for this compound. Item: C[N+](C)(C)CC1CCCC(C[N+](C)(C)C)C1=O (centres undefined)
inactive

Write down the call the test reported for this compound. Item: CCOP(=O)(CC(C)P(=O)(OCC)OCC)OCC.C[CH2][Sn]([Cl])([Cl])[CH2]C (centres undefined)
inactive

Write down the call the test reported for this compound. Item: C[C@]12CC[C@H](O)CC1=CC[C@@H]1[C@@H]2CC[C@]2(C)C(=O)CC[C@@H]12
inactive

Write down the call the test reported for this compound. Item: CCOC(=O)C1C2c3ccccc3C(c3ccccc32)C1C(=O)OCC (centres undefined)
inactive

Write down the call the test reported for this compound. Item: O=[N+]([O-])c1cc([As](Br)c2ccc(O)c([N+](=O)[O-])c2)ccc1O
active

Write down the call the test reported for this compound. Item: COC(=O)C(F)C(Br)C(=O)OC (centres undefined)
active

Write down the call the test reported for this compound. Item: CC1CC(Br)C(=O)O1 (centres undefined)
inactive

Write down the call the test reported for this compound. Item: Cn1cnc(N)c1C(=N)[Se]
inactive

###

# assay info: NCI Yeast Anticancer Drug Screen. Data for the sgs1 mgt1 strain (AID 161);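 note: 0% = growth of cultures given vehicle only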
# condition description: S. cerevisiae sgs1 mgt1 strain, at 50.0 µM (retest, dose inferred, filed as 5.0)
Compounds without any hit were thinned out: in the full panel of roughly 79,000, 15% have a hit. Calls of active or inactive are those of the source. No stated cut-off is given here; in the data, active means growth inhibition above about 70%; inactive means the rest.
# valid calls are yes = active, no = inactive; nothing else

Examples with answers:
compound: ClCCN(CCCl)c1ccc(C2N(Cc3ccc(Cl)cc3)CCCN2Cc2ccc(Cl)cc2)cc1
assigned category: no
//
compound: CCC(=O)C(CCN1CCC2(CCCc3ccccc32)CC1)(c1ccccc1)c1ccccc1
assigned category: yes
//
compound: CC(=O)O[C@H]1CC[C@H]2[C@@H]3CCC4=CC(=O)CC[C@@H]4[C@H]3CC[C@]12C
assigned category: yes
//
compound: CN(CCC(N)CC(=O)NC1C=CC(n2ccc(N)nc2=O)OC1C(=O)O)C(=N)N (stereo not given)
assigned category: yes

Consider now this further compound.
Write down the call the test reported for this compound. Item: COC1=C(N2CC2)C(=O)C(OC)=C(N2CC2)C1=O
yes
